# System: Escherichia coli
# assay text: Antibacterial activity against Escherichia coli SR34100 producing class A beta-lactamase, CTX-M-15 assessed as reduction in microbial growth incubated for 16 to 20 hrs by broth microdilution method
# Format: functional
# assay context: time 16-20 hrs
result type: MIC (mg/L)

compound: Nc1nc(/C(=N/OCC(=O)O)C(=O)N[C@@H]2C(=O)N3[C@@H]2SC[C@@H]2CC(=O)O[C@@]23C(=O)O)cs1 (stereo in doubt)
result type: MIC
value comparator: =
obs value: 0.25

compound: CC(C)(O/N=C(\C(=O)N[C@@H]1C(=O)N2C(C(=O)[O-])=C(C[n+]3ccccc3)CS[C@H]12)c1csc(N)n1)C(=O)O
result type: MIC
value comparator: >
obs value: 32

compound: Nc1nc(/C(=N/OC2(C(=O)O)CC2)C(=O)N[C@@H]2C(=O)N3[C@@H]2SC[C@@H]2CC(=O)O[C@@]23C(=O)O)cs1 (stereo in doubt)
result type: MIC
value comparator: =
obs value: 0.25

compound: Nc1nc(/C(=N/OCC(=O)O)C(=O)N[C@@H]2C(=O)N3[C@@H]2SC[C@@H]2CC(=O)O[C@@]23C(=O)O)c(Cl)s1
result type: MIC
value comparator: =
obs value: 4

compound: Nc1nc(/C(=N/OC2(C(=O)O)CC2)C(=O)N[C@@H]2C(=O)N3[C@@H]2[S@@+]([O-])C[C@@H]2CC(=O)O[C@@]23C(=O)O)cs1 (stereo in doubt)
result type: MIC
value comparator: =
obs value: 0.5

====

Measured Ki of individual entries
# assay text: Inhibition of CMY-2 in Escherichia coil BL21 assessed as inhibition of nitrocefin hydrolysis measured every 3 mins for 15 mins by UV spectrophotometer analysis
# Design: species or system Escherichia coli BL21
result type: Ki (nM)

compound: Nc1nc(/C(=N/OCC(=O)O)C(=O)N[C@@H]2C(=O)N3[C@@H]2SC[C@@H]2CC(=O)O[C@@]23C(=O)O)cs1 (stereo in doubt)
value comparator: =
obs value: 400
--
compound: Nc1nc(/C(=N/OCC(=O)O)C(=O)N[C@@H]2C(=O)N3[C@@H]2[S@@+]([O-])C[C@@H]2CC(=O)O[C@@]23C(=O)O)cs1 (stereo in doubt)
value comparator: >
obs value: 60000

====

# Test system: Escherichia coli
# assay text: Antibacterial activity against Escherichia coli SR34100 producing class A beta-lactamase, CTX-M-15 assessed as reduction in microbial growth incubated for 16 to 20 hrs by broth microdilution method
# Type: functional
# assay context: time 16-20 hrs
Rule: measured MIC below 0.5 µg/mL gets TRUE; anything equal to or greater than 0.5 µg/mL gets FALSE.

molecule: Nc1nc(/C(=N/OCC(=O)O)C(=O)N[C@@H]2C(=O)N3[C@@H]2[S@@+]([O-])C[C@@H]2CC(=O)O[C@@]23C(=O)O)cs1 (stereo in doubt)
category: TRUE
--
molecule: Nc1nc(/C(=N/OCC(=O)O)C(=O)N[C@@H]2C(=O)N3[C@@H]2S(=O)(=O)C[C@@H]2CC(=O)O[C@@]23C(=O)O)cs1 (stereo in doubt)
category: FALSE
--
molecule: CC(C)(O/N=C(\C(=O)N[C@@H]1C(=O)N2[C@@H]1SC[C@@H]1CC(=O)O[C@@]12C(=O)O)c1csc(N)n1)C(=O)O (stereo in doubt)
category: FALSE
--
molecule: Nc1nc(/C(=N/OCC(=O)O)C(=O)N[C@@H]2C(=O)N3[C@@H]2[S@@+]([O-])C[C@@H]2CC(=O)O[C@@]23C(=O)O)ns1
category: FALSE
--
molecule: Nc1nc(/C(=N/OCC(=O)O)C(=O)N[C@@H]2C(=O)N3[C@@H]2[S@+]([O-])C[C@@H]2CC(=O)O[C@@]23C(=O)O)cs1 (stereo in doubt)
category: FALSE
--
molecule: CC(C)(O/N=C(\C(=O)N[C@H]1CON(C2(C(=O)O)CCC(=O)O2)C1=O)c1csc(N)n1)C(=O)O (stereo in doubt)
category: FALSE
--
molecule: Nc1nc(/C(=N/OCC(=O)O)C(=O)N[C@@H]2C(=O)N3[C@@H]2SC[C@@H]2CC(=O)O[C@@]23C(=O)O)ns1
category: TRUE
--
molecule: C[C@H](O/N=C(\C(=O)N[C@@H]1C(=O)N2[C@@H]1[S@@+]([O-])C[C@@H]1CC(=O)O[C@@]12C(=O)O)c1csc(N)n1)C(=O)O (stereo in doubt)
category: FALSE

====

# Tested on: Escherichia coli
# assay text: Antibacterial activity against Escherichia coli NIHJ JC-2 assessed as reduction in microbial growth incubated for 16 to 20 hrs by broth microdilution method
# Type: functional
# assay context: time 16-20 hrs

molecule: Nc1nc(/C(=N/OCC(=O)O)C(=O)N[C@@H]2C(=O)N3[C@@H]2[S@@+]([O-])C[C@@H]2CC(=O)O[C@@]23C(=O)O)cs1 (stereo in doubt)
unit string: µg/mL
MIC: 0.063
--
molecule: Nc1nc(/C(=N/OC2(C(=O)O)CC2)C(=O)N[C@@H]2C(=O)N3[C@@H]2SC[C@@H]2CC(=O)O[C@@]23C(=O)O)cs1 (stereo in doubt)
unit string: µg/mL
MIC: 0.125
--
molecule: Nc1nc(/C(=N/OCC(=O)O)C(=O)N[C@@H]2C(=O)N3[C@@H]2[S@+]([O-])C[C@@H]2CC(=O)O[C@@]23C(=O)O)cs1 (stereo in doubt)
unit string: µg/mL
MIC: 0.25
--
molecule: C[C@H](O/N=C(\C(=O)N[C@@H]1C(=O)N2[C@@H]1[S@@+]([O-])C[C@@H]1CC(=O)O[C@@]12C(=O)O)c1csc(N)n1)C(=O)O (stereo in doubt)
unit string: µg/mL
MIC: 0.25
--
molecule: C[C@H](O/N=C(\C(=O)N[C@@H]1C(=O)N2[C@@H]1SC[C@@H]1CC(=O)O[C@@]12C(=O)O)c1csc(N)n1)C(=O)O (stereo in doubt)
unit string: µg/mL
MIC: 0.125
--
molecule: CC(C)(O/N=C(\C(=O)N[C@@H]1C(=O)N2[C@@H]1SC[C@@H]1CC(=O)O[C@@]12C(=O)O)c1csc(N)n1)C(=O)O (stereo in doubt)
unit string: µg/mL
MIC: 0.5
--
molecule: CC(C)(O/N=C(\C(=O)N[C@H]1CON(C2(C(=O)O)CCC(=O)O2)C1=O)c1csc(N)n1)C(=O)O (stereo in doubt)
unit string: µg/mL
MIC: 0.25
--
molecule: Nc1nc(/C(=N/OCC(=O)O)C(=O)N[C@@H]2C(=O)N3[C@@H]2SC[C@@H]2CC(=O)O[C@@]23C(=O)O)cs1 (stereo in doubt)
unit string: µg/mL
MIC: 0.063
--
molecule: Nc1nc(/C(=N/OCC(=O)O)C(=O)N[C@@H]2C(=O)N3[C@@H]2S(=O)(=O)C[C@@H]2CC(=O)O[C@@]23C(=O)O)cs1 (stereo in doubt)
unit string: µg/mL
MIC: 0.25
--
molecule: CC(C)(O/N=C(\C(=O)N[C@@H]1C(=O)N2C(C(=O)[O-])=C(C[n+]3ccccc3)CS[C@H]12)c1csc(N)n1)C(=O)O [CEFTAZIDIME]
unit string: µg/mL
MIC: 0.25
--
molecule: Nc1nc(/C(=N/OCC(=O)O)C(=O)N[C@@H]2C(=O)N3[C@@H]2SC[C@@H]2CC(=O)O[C@@]23C(=O)O)c(Cl)s1
unit string: µg/mL
MIC: 1
--
molecule: C[C@@H](O/N=C(\C(=O)N[C@@H]1C(=O)N2[C@@H]1[S@@+]([O-])C[C@@H]1CC(=O)O[C@@]12C(=O)O)c1csc(N)n1)C(=O)O (stereo in doubt)
unit string: µg/mL
MIC: 0.125
--
molecule: Nc1nc(/C(=N/OCC(=O)O)C(=O)N[C@@H]2C(=O)N3[C@@H]2SC[C@@H]2CC(=O)O[C@@]23C(=O)O)ns1
unit string: µg/mL
MIC: 0.125
--
molecule: CCO/N=C(\C(=O)N[C@@H]1C(=O)N2[C@@H]1[S@@+]([O-])C[C@@H]1CC(=O)O[C@@]12C(=O)O)c1csc(N)n1 (stereo in doubt)
unit string: µg/mL
MIC: 0.25
--
molecule: Nc1nc(/C(=N/OC2(C(=O)O)CC2)C(=O)N[C@@H]2C(=O)N3[C@@H]2[S@@+]([O-])C[C@@H]2CC(=O)O[C@@]23C(=O)O)cs1 (stereo in doubt)
unit string: µg/mL
MIC: 0.25
--
molecule: Nc1nc(/C(=N/OCC(=O)O)C(=O)N[C@@H]2C(=O)N3[C@@H]2[S@@+]([O-])C[C@@H]2CC(=O)O[C@@]23C(=O)O)ns1
unit string: µg/mL
MIC: 1
--
molecule: C[C@@H](O/N=C(\C(=O)N[C@@H]1C(=O)N2[C@@H]1SC[C@@H]1CC(=O)O[C@@]12C(=O)O)c1csc(N)n1)C(=O)O (stereo in doubt)
unit string: µg/mL
MIC: 0.125

Data origin, for the record: ChEMBL document CHEMBL4808247
